experiment: small molecules captured by biotinylated probe aFST – biochemical, small-molecule microarray, fluorescence 635/667, stem cell growth factor project, primary screen (AID 1086); conditions: higher = more signal;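 further: score merges 667 nm fluorescence with signal-to-noise of each printed compound spot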
# binarize composite z-score: threshold 0.8 inclusive, high side y, low side n

Please review the entries below; each comes with its answer.
molecule	classification
CCOC(=O)C[C@H]1[C@H](OC(=O)c2ccc(-c3ccccc3)cc2)[C@@H](NC(=O)CC(C)C)c2cc(OCCCO)ccc2N1C(=O)c1ccc2ccccc2n1	n
NC(=O)NCC#Cc1ccc2c(c1)[C@]1(C(=O)N2)[C@H](c2ccccc2OCCO)N2[C@H](c3ccccc3)[C@H](c3ccccc3)OC(=O)[C@H]2[C@@H]1C(=O)NC[C@H](O)c1ccccc1	n
C=CCOC(=O)[C@@]1(Cc2ccccc2)C[C@H]2CO[C@H](c3ccc(OC)cc3)N2C1=O	n
COC(=O)C1(CC(C)C)C=C2C(=C(c3ccccc3)C(=O)C2C)CN1 (stereo not drawn)	y
CC1CC/C=C\[C@H]2OC34C=CCN(c5ccc(Cl)cc5)C(=O)[C@H]3N(C(C)CO)C(=O)[C@]4(C)C2C(=O)O1 (stereo partly drawn)	n
COC(=O)[C@@]1(Cc2ccccc2)[C@H]2c3cc(C(=O)N(C)C)n(Cc4ccc(C)o4)c3C[C@H]2CN1C(=O)c1ccccc1	y

Now turn to the next molecule.
Input: composite z-score >= 0.8 for Cc1ccccc1C(O)C1C=CC2C(=O)NC(=O)C2N1Nc1ccccn1 (stereo not drawn) ?
Output: n

Cited source: PubChem BioAssay
